- protocol: Plasma budesonide pharmacokinetics in asthmatic children, twice a day nebulization over six weeks
- Type: in vivo, human (asthmatic children)
- experimental.conditions: human, plasma, inhaled; 0.135 mg dose; Day 42; asthmatic children; read-out: Tmax (geometric mean) (converted)
endpoint.name: Tmax at 42 days (min)
Reply with just the number (in min).

Req: Param item = CCCC1O[C@@H]2C[C@H]3[C@@H]4CCC5=CC(=O)C=C[C@]5(C)[C@H]4[C@@H](O)C[C@]3(C)[C@]2(C(=O)CO)O1 (stereo partly shown) [Budesonide, budesonide] ; retrieve measured Tmax at 42 days.
Resp: 4.4

====

- protocol: Plasma budesonide pharmacokinetics in asthmatic children, twice a day nebulization over six weeks
- Format: in vivo, human (asthmatic children)
- experimental.conditions: human, plasma, inhaled; 0.25 mg dose; First Dose; asthmatic children; read-out: T1/2 (geometric mean)
endpoint.name: half-life (h)
Reply with just the number (in h).

Req: Param item = CCCC1O[C@@H]2C[C@H]3[C@@H]4CCC5=CC(=O)C=C[C@]5(C)[C@H]4[C@@H](O)C[C@]3(C)[C@]2(C(=O)CO)O1 (stereo partly shown) [Budesonide, budesonide] ; retrieve measured half-life.
Resp: 2.58
